Kindly supply the reported kcat/Km values for the records listed here.
Substrate: O=C(O)C(=O)C[C@@H](O)CO
Assay: purified protein, by the assay type
Design: coupled assay with PpKGSADH, NADH formation at 340 nm, Michaelis-Menten fit, 25 °C, pH 7.5
Conditions: pH 7.5; 25.0 °C
Numbers only, in M⁻¹ s⁻¹.

Past entries and their recorded results:
HsD-KdpD (Herbaspirillum seropedicae SmR1) (protein, C-terminal His6 tag (kept), pET vector, E. coli BL21(DE3), HisTrap purified) MAHTFSLQAHLPEDHAQATLIGRIWQPGVGPVLVRIDADGAYDLTLIAATSSELLELDNPAAAVRSATNMTRIATLQELLDNADAAGRDTSRPWLLAPIDLQAVKASGVTFVASMLERVIEEQARGDAGKAESVRKAITAVIGDNLSSVVPGSPEAARLKEVLLDQGVWSQYLEVGIGPDAEIFTKAQPMSSVGLGDEVGIHPKSAWNNPEPEIVLAINSRGKVVGATLGNDVNLRDFEGRSALLLGKAKDNNASCAVGPFIRLFDANFSIDDVRRAELTMRVDGTEGFTLKGSSSMSMISRDPLQLVEHAIGPNHQYPDGLVLFLGTMFAPTQDRFGPGQGFTHQVADIVTISTPKLGALVNTVNFSDQTAPWTFGLTALFKNLADRKLI	5320
CnD-KdpD (Cupriavidus necator H16) (protein, C-terminal His6 tag (kept), pET vector, E. coli BL21(DE3), HisTrap purified; strain given inconsistently (H16 gDNA vs N-1)) MALPLTLSATQTLPADGLAGTLVGRAWIPASDGAPAGPAVVVLRPAGVFDISDVAPTMSTLLEQGDPVTVVHNTPGRWIGKLDDLLANTADPRGSDSVARLLAPCDLQVIKAAGVTFAGSLVERVIEEQTKGDPQGAAEVRNRIQALVGERLSRIRPGSREAGELKALLIEHGMWSQYLEVGIGPDAEIFTKAPLLSALGTGTEIGLHPGSAWNNPEPEIVLAINSRGDVLGATLGNDVNLRDFEGRSALLLGKAKDNNGSCAIGPFLRLFDQSLSLDDVRRATVDLRVDGLDGFVLSGTSSMDQITRDPLELAEQVMGATHQYPDGAMLFLGTLFAPVEDRDTAGGGFTHKDGDLVTISSRQLGSLVNRVGRSDRIAPWTFGVRALMANLAARGHTTF	1700

Attention now shifts to the item below.
Exam item: Name the reported kcat/Km value associated with the protein PxD-KdpD (Paraburkholderia xenovorans LB400) (protein, C-terminal His6 tag (kept), codon-optimised synthetic gene, E. coli BL21(DE3), HisTrap purified) MSATSPSSFLPDDLGQALLVGRVWRKTDQHEGPSVVVVRGGEVFDITATVPTTADLFDREDAAPLARTAPGVSLGAVAQLIASNLPGAAAPALRLLAPCDVQAIKACGVTFAVSLIERVIEEQAAGDPAKAKEVRDTIASMIGTDLSKIEPGSDAAMKLKAELERRGAWSQYMEVGIGPDAEVFSKSQPMSAVGFGADVGLLAASTWNNPEPEIVLAVNSRGEIVGATLGNDVNLRDIEGRSALLLGKCKDNNGSCAIGPFVRLFDESFSLDSVRTASVALRVEGADDGFVLEGVSHMSEISRDPANLVAQTWGRHHQYPDGFMLFLGTMFSPIKDRDAPGAGFTHHLGDLVTISTPQLGALTNTVRLSTEIEPWTFGVRALYRNLAARGLLASA
Marked response: 3690
